tested on: Liver tissue; test: Liver tissue disaggregation by 1% surfactant with or without Proteinase K at 60° C.; parameters: scale not given here; details: Fifty-Two Minutes Incubation, 60° C., 1% surfactant, Proteinase K not present (N)
Value type: Tissue Disaggregation
Give a plain numeric answer without units written out.

Worked cases, answers included:
CCCCCCCCCCCC[N+](C)(C)Cc1ccccc1.[Br-] [Benzyldimethyldodecylammonium bromide]
0
CCCCCCCCCCCCCC[N+](C)(C)Cc1ccccc1.[Cl-]
0

Here is another compound to look at.
Task item: Fill blank: measured Tissue Disaggregation of the compound CCCCCCCC/C=C\CCCCCCCC[N+](C)(C)Cc1ccccc1.[Cl-] [Mackernium KP, olealkonium chloride] is ____.
Reply: 0
